Test system: Rattus norvegicus
method.notes: Antiinflammatory activity in po dosed albino rat assessed as inhibition of formalin-induced paw edema administered 1 hr prior to formalin challenge measured after 2 hrs by plethysmometric analysis
Assay type: functional
Listing of recorded ED50 by entry.
Numeric only. Scale: mg/kg

[
  {
    "compound": "Cc1nn2c(=O)c3c(C)c(C)sc3nc2[nH]1",
    "unit.text": "mg/kg",
    "ED50": 23.4
  }
]

Q: Please tell me: ED50 of CCOC(=O)Cc1nn2c(=O)c3c(C)c(C)sc3nc2[nH]1 , system Rattus norvegicus?
A: 28.1

Q: Please tell me: ED50 of Cc1sc2nc3[nH]c(=S)[nH]n3c(=O)c2c1C , system Rattus norvegicus?
A: 27.5

The reported numbers originate from ChEMBL document CHEMBL2331427.
